# run.parameters: in water, 323.15 K
readout.label: solubility (mole fraction)
Numbers only.

input: Please report the measured solubility (mole fraction) for COC(=O)Nc1nc2ccc(C(=O)c3ccc(F)cc3)cc2[nH]1
output: 6.07e-07

###

# run.parameters: in n-butanol, 298.15 K
readout.label: solubility (mole fraction)
Give bare numbers.

input: Please report the measured solubility (mole fraction) for COC(=O)Nc1nc2ccc(C(=O)c3ccc(F)cc3)cc2[nH]1
output: 4.36e-05

###

# run.parameters: in DMF, 308.15 K
readout.label: solubility (mole fraction)
Give bare numbers.

input: Please report the measured solubility (mole fraction) for COC(=O)Nc1nc2ccc(C(=O)c3ccc(F)cc3)cc2[nH]1
output: 0.00138

###

# run.parameters: in ethanol, 283.15 K
readout.label: solubility (mole fraction)
Numbers only.

input: Please report the measured solubility (mole fraction) for COC(=O)Nc1nc2ccc(C(=O)c3ccc(F)cc3)cc2[nH]1
output: 1.03e-06

###

# run.parameters: in n-butanol, 318.15 K
readout.label: solubility (mole fraction)
Give bare numbers.

input: Please report the measured solubility (mole fraction) for COC(=O)Nc1nc2ccc(C(=O)c3ccc(F)cc3)cc2[nH]1
output: 0.000111

###

# run.parameters: in n-butanol, 283.15 K
readout.label: solubility (mole fraction)
Answers are plain numbers.

input: Please report the measured solubility (mole fraction) for COC(=O)Nc1nc2ccc(C(=O)c3ccc(F)cc3)cc2[nH]1
output: 1.93e-05

###

# run.parameters: in NMP, 318.15 K
readout.label: solubility (mole fraction)
Give bare numbers.

input: Please report the measured solubility (mole fraction) for COC(=O)Nc1nc2ccc(C(=O)c3ccc(F)cc3)cc2[nH]1
output: 0.00215

###

# run.parameters: in methanol, 303.15 K
readout.label: solubility (mole fraction)
Give bare numbers.

input: Please report the measured solubility (mole fraction) for COC(=O)Nc1nc2ccc(C(=O)c3ccc(F)cc3)cc2[nH]1
output: 3.15e-06

###

# run.parameters: in methanol, 313.15 K
readout.label: solubility (mole fraction)
Numbers only.

input: Please report the measured solubility (mole fraction) for COC(=O)Nc1nc2ccc(C(=O)c3ccc(F)cc3)cc2[nH]1
output: 6.31e-06

###

# run.parameters: in NMP, 333.15 K
readout.label: solubility (mole fraction)
Give bare numbers.

input: Please report the measured solubility (mole fraction) for COC(=O)Nc1nc2ccc(C(=O)c3ccc(F)cc3)cc2[nH]1
output: 0.00373

###

# run.parameters: in water, 303.15 K
readout.label: solubility (mole fraction)
Answers are plain numbers.

input: Please report the measured solubility (mole fraction) for COC(=O)Nc1nc2ccc(C(=O)c3ccc(F)cc3)cc2[nH]1
output: 2.6e-07

###

# run.parameters: in 1,4-dioxane, 323.15 K
readout.label: solubility (mole fraction)
Numbers only.

input: Please report the measured solubility (mole fraction) for COC(=O)Nc1nc2ccc(C(=O)c3ccc(F)cc3)cc2[nH]1
output: 0.000266

###

# run.parameters: in n-butanol, 328.15 K
readout.label: solubility (mole fraction)
One number for each entry.

input: Please report the measured solubility (mole fraction) for COC(=O)Nc1nc2ccc(C(=O)c3ccc(F)cc3)cc2[nH]1
output: 0.000173

###

# run.parameters: in water, 313.15 K
readout.label: solubility (mole fraction)
Give bare numbers.

input: Please report the measured solubility (mole fraction) for COC(=O)Nc1nc2ccc(C(=O)c3ccc(F)cc3)cc2[nH]1
output: 4e-07

###

# run.parameters: in methanol, 308.15 K
readout.label: solubility (mole fraction)
Numbers only.

input: Please report the measured solubility (mole fraction) for COC(=O)Nc1nc2ccc(C(=O)c3ccc(F)cc3)cc2[nH]1
output: 4.41e-06

###

# run.parameters: in n-propanol, 283.15 K
readout.label: solubility (mole fraction)
One number for each entry.

input: Please report the measured solubility (mole fraction) for COC(=O)Nc1nc2ccc(C(=O)c3ccc(F)cc3)cc2[nH]1
output: 7.7e-06

###

# run.parameters: in methanol, 283.15 K
readout.label: solubility (mole fraction)
Give bare numbers.

input: Please report the measured solubility (mole fraction) for COC(=O)Nc1nc2ccc(C(=O)c3ccc(F)cc3)cc2[nH]1
output: 7.08e-07

###

# run.parameters: in 1,4-dioxane, 298.15 K
readout.label: solubility (mole fraction)
One number for each entry.

input: Please report the measured solubility (mole fraction) for COC(=O)Nc1nc2ccc(C(=O)c3ccc(F)cc3)cc2[nH]1
output: 0.00012

###

# run.parameters: in methanol, 328.15 K
readout.label: solubility (mole fraction)
Numbers only.

input: Please report the measured solubility (mole fraction) for COC(=O)Nc1nc2ccc(C(=O)c3ccc(F)cc3)cc2[nH]1
output: 1.59e-05

###

# run.parameters: in n-butanol, 288.15 K
readout.label: solubility (mole fraction)
Answers are plain numbers.

input: Please report the measured solubility (mole fraction) for COC(=O)Nc1nc2ccc(C(=O)c3ccc(F)cc3)cc2[nH]1
output: 2.58e-05

###

# run.parameters: in 1,4-dioxane, 308.15 K
readout.label: solubility (mole fraction)
Give bare numbers.

input: Please report the measured solubility (mole fraction) for COC(=O)Nc1nc2ccc(C(=O)c3ccc(F)cc3)cc2[nH]1
output: 0.000168

###

# run.parameters: in ethanol, 328.15 K
readout.label: solubility (mole fraction)
One number for each entry.

input: Please report the measured solubility (mole fraction) for COC(=O)Nc1nc2ccc(C(=O)c3ccc(F)cc3)cc2[nH]1
output: 2.55e-05

###

# run.parameters: in 2-butanone, 283.15 K
readout.label: solubility (mole fraction)
Answers are plain numbers.

input: Please report the measured solubility (mole fraction) for COC(=O)Nc1nc2ccc(C(=O)c3ccc(F)cc3)cc2[nH]1
output: 0.000232

###

# run.parameters: in 1,4-dioxane, 293.15 K
readout.label: solubility (mole fraction)
One number for each entry.

input: Please report the measured solubility (mole fraction) for COC(=O)Nc1nc2ccc(C(=O)c3ccc(F)cc3)cc2[nH]1
output: 9.83e-05

###

# run.parameters: in DMSO, 318.15 K
readout.label: solubility (mole fraction)

input: Please report the measured solubility (mole fraction) for COC(=O)Nc1nc2ccc(C(=O)c3ccc(F)cc3)cc2[nH]1
output: 0.00419

###

# run.parameters: in isopropanol, 308.15 K
readout.label: solubility (mole fraction)
One number for each entry.

input: Please report the measured solubility (mole fraction) for COC(=O)Nc1nc2ccc(C(=O)c3ccc(F)cc3)cc2[nH]1
output: 1.63e-05

###

# run.parameters: in isobutanol, 313.15 K
readout.label: solubility (mole fraction)
Give bare numbers.

input: Please report the measured solubility (mole fraction) for COC(=O)Nc1nc2ccc(C(=O)c3ccc(F)cc3)cc2[nH]1
output: 5.88e-05

###

# run.parameters: in 2-butanone, 288.15 K
readout.label: solubility (mole fraction)
Give bare numbers.

input: Please report the measured solubility (mole fraction) for COC(=O)Nc1nc2ccc(C(=O)c3ccc(F)cc3)cc2[nH]1
output: 0.000305

###

# run.parameters: in n-propanol, 328.15 K
readout.label: solubility (mole fraction)
Give bare numbers.

input: Please report the measured solubility (mole fraction) for COC(=O)Nc1nc2ccc(C(=O)c3ccc(F)cc3)cc2[nH]1
output: 6.78e-05

###

# run.parameters: in isobutanol, 318.15 K
readout.label: solubility (mole fraction)
Numbers only.

input: Please report the measured solubility (mole fraction) for COC(=O)Nc1nc2ccc(C(=O)c3ccc(F)cc3)cc2[nH]1
output: 7.44e-05

###

# run.parameters: in ethanol, 303.15 K
readout.label: solubility (mole fraction)
Numbers only.

input: Please report the measured solubility (mole fraction) for COC(=O)Nc1nc2ccc(C(=O)c3ccc(F)cc3)cc2[nH]1
output: 5.44e-06

###

# run.parameters: in water, 333.15 K
readout.label: solubility (mole fraction)
Answers are plain numbers.

input: Please report the measured solubility (mole fraction) for COC(=O)Nc1nc2ccc(C(=O)c3ccc(F)cc3)cc2[nH]1
output: 8.81e-07

###

# run.parameters: in NMP, 328.15 K
readout.label: solubility (mole fraction)
Numbers only.

input: Please report the measured solubility (mole fraction) for COC(=O)Nc1nc2ccc(C(=O)c3ccc(F)cc3)cc2[nH]1
output: 0.00308

###

# run.parameters: in water, 318.15 K
readout.label: solubility (mole fraction)
Numbers only.

input: Please report the measured solubility (mole fraction) for COC(=O)Nc1nc2ccc(C(=O)c3ccc(F)cc3)cc2[nH]1
output: 4.96e-07

###

# run.parameters: in DMF, 323.15 K
readout.label: solubility (mole fraction)
Give bare numbers.

input: Please report the measured solubility (mole fraction) for COC(=O)Nc1nc2ccc(C(=O)c3ccc(F)cc3)cc2[nH]1
output: 0.0022

###

# run.parameters: in n-butanol, 308.15 K
readout.label: solubility (mole fraction)

input: Please report the measured solubility (mole fraction) for COC(=O)Nc1nc2ccc(C(=O)c3ccc(F)cc3)cc2[nH]1
output: 7.1e-05

###

# run.parameters: in NMP, 313.15 K
readout.label: solubility (mole fraction)
Numbers only.

input: Please report the measured solubility (mole fraction) for COC(=O)Nc1nc2ccc(C(=O)c3ccc(F)cc3)cc2[nH]1
output: 0.00188

These measurements were taken from BigSolDB 2.1.
